Several reports have described IC50 for Caspase-3 (Homo sapiens); a selection of those results is presented here.

See these solved cases before continuing.
MOLECULE: O=C1C[C@H](NC(=O)C2(C(=O)NNC(=O)c3ccc4ccccc4c3)CCCCC2)C(O)O1 (some centres undefined)
MEASURE: IC50
VALUE_REPORTED: > 10 µM
--
MOLECULE: CN1C[C@@H]2CCCC[C@H](NC(=O)c3ccccc3)C(=O)N2[C@H](C(=O)N[C@H]2CC(=O)OC2O)C1 (some centres undefined)
MEASURE: IC50
VALUE_REPORTED: > 10 µM
--
MOLECULE: CC(=O)OCCN1C(=O)c2c(-c3ccc(F)c(Cl)c3)nc3ccc(S(=O)(=O)N4CCOCC4)cc3c2C1=O
MEASURE: IC50
VALUE_REPORTED: 0.033 µM

Here's the next entry for you.
Prompt line: For Caspase-3 (Homo sapiens), give the measured IC50 of the entry O=C1C[C@H](NC(=O)[C@@H]2COC[C@@H]3C/C=C\C[C@H](NC(=O)c4ccccc4)C(=O)N32)C(O)O1 (some centres undefined)
Response line: > 10 µM
